system: HT29 colon; assay: NCI tumour cell line growth inhibition, 48 h
Field: TGI. Provide a value for each of the compounds that follow.

Give TGI for each listed item.
1. Cc1cc(-c2no[n+]([O-])c2-c2cc(C)sc2S(C)(=O)=O)c(S(C)(=O)=O)s1
2. COc1ccc(NC(=O)C2C(=O)N(c3ccc(OC)cc3)C(=O)/C2=N\N)cc1 (stereo not given)
3. CN(C)CCNc1ccc(NCCN(C)C)c2c1C(=O)c1ncsc1C2=O
4. CCC1=C(c2ccc(OC)cc2)CC[C@@]2(CCNC2=O)[C@@H]1C
5. CCCCCCC1NN(C(C)=O)C(CCCCCC)NN1C(C)=O (stereo not given)
6. NC1CSc2ccccc2NC1=O (stereo not given)
7. CCOC(=O)N/N=C(\Cc1ccccc1)OCC

> 100 µM
> 100 µM
19.7 µM
> 100 µM
> 100 µM
> 100 µM
> 100 µM

Give TGI for each listed item.
1. CC(=O)c1cc2c(c(O)c1C)C(=O)C(=O)c1c(O)cccc1-2
2. CC1(C)C(=O)/C(=C\c2ccccn2)C[C@]2(C)[C@H]3CC[C@@H]4[C@@H](C(=O)/C=C/c5ccccn5)CC[C@@]4(C)[C@]3(C)CC[C@@H]12

["1.49 µM", "3.46 µM"]

Consider Brc1ccc(N=NN2CCCC2)cc1 . Its measured TGI is > 100 µM

* * *

tested on: OVCAR-4 ovarian; assay: NCI tumour cell line growth inhibition, 48 h
Field: GI50. Provide a value for each of the molecules that follow.

Solved entries (count: 2):
>>> measurement("CC1CN1C1=CC(=O)c2c(c(CO)cn2C)C1=O (stereo not drawn)")
"1.66 µM"
>>> measurement("CC(=O)OC[C@]1(C)C=C2C(=O)[C@](C)(O)C3(CC3)C(C)=C2[C@H]1OC(=O)N(C)CCN(C)C(=O)OC(C)(C)C")
"0.797 µM"

Consider O=C1c2ccccc2C(=O)c2c(N=Nc3[nH]c(=S)[nH]c3O)cccc21 . Its measured GI50 is 2.12 µM

* * *

Field: TGI. Provide a value for each of the compounds that follow.
system: RXF 393 renal; experiment: NCI tumour cell line growth inhibition, 48 h

Solved entries (count: 6):
>>> measurement("O=C(CON1C(=O)c2ccccc2C1=O)c1ccccc1")
"> 100 µM"
>>> measurement("Cc1cc(O)c2c3c1C(=O)Oc1c(CO)c(O)c(C(=O)O)c(c1O3)C=NN=Cc1c3c(c(CO)c(O)c1C(=O)O)OC(=O)c1c(C)cc(O)c(c1O3)C=NN=C2")
"> 100 µM"
>>> measurement("O=C1C=CC(=O)c2ccc(=O)ccc21")
"16.3 µM"
>>> measurement("CCCCc1ccc(Nc2nc(=S)c3ncn(COCCO)c3[nH]2)cc1")
"> 100 µM"
>>> measurement("CC(=NC1CCCCC1)c1ccccc1O")
"> 100 µM"
>>> measurement("CN(C)c1ccc(/C=C2\\Oc3ccccc3C2=O)cc1")
"> 100 µM"

Give TGI for each listed item.
1. CCCCCCc1nn2c(-c3ccncc3)nnc2s1
2. C/C(O)=C/c1nc2ccccc2[nH]1

> 10 µM
> 100 µM

Give TGI for each listed item.
1. CN=C(NN)NS(=O)(=O)c1cc(C)c(Cl)cc1S
2. CCCCCCC[C@@H](O)CC(=O)NC(CC(C)C)C(=O)NC(CCC(=O)O)C(=O)NC1C(=O)NC(C(C)C)C(=O)NC(CC(C)C)C(=O)NC(CO)C(=O)NC(CC(C)C)C(=O)NC(CO)C(=O)NC(C(C)CC)C(=O)OC1C (stereo not given in full)

1: > 100 µM; 2: 26 µM

* * *

Field: TGI. Provide a value for each of the molecules that follow.
system: SK-OV-3 ovarian; assay: NCI tumour cell line growth inhibition, 48 h

Solved entries (count: 5):
>>> measurement("CN1CCN(c2ccc3nc(-c4c5cccccc-5[nH]c4=O)[nH]c3c2)CC1")
"83.1 µM"
>>> measurement("CC(C)(C)OC(=O)N1CCCC1=O")
"> 10 µM"
>>> measurement("N#Cc1c(N)nc(Nc2cccc3ccccc23)c(C#N)c1C#N")
"> 10 µM"
>>> measurement("COc1ccc(C(=O)/C=C2\\C(=O)Nc3ccc(Br)cc32)cc1")
"29.6 µM"
>>> measurement("NC(=O)c1cccc(N2Cc3ccccc3OC3=C2C(=O)c2c(O)ccc(O)c2C3=O)c1")
"13 µM"

Give TGI for each listed item.
1. O=C(OCCN=C1c2ccccc2CCc2ccccc21)c1ccccc1
2. CCc1n[nH]c(=O)n1NC(=O)CCCC(=O)O

1: > 100 µM; 2: > 100 µM

* * *

Field: TGI. Provide a value for each of the compounds that follow.
system: DU-145 prostate; experiment: NCI tumour cell line growth inhibition, 48 h

Solved entries (count: 8):
>>> measurement("C[C@@H]1CCC[C@]2(C)O[C@H]2CC[C@@](C)(O)[C@@H]2CC3=C(CO)C(=O)O[C@H]3[C@H]1O2")
"> 50 µM"
>>> measurement("COc1cccc(/C=N/Nc2ncnc3c2cnn3-c2cccc(OC)c2)c1")
"> 25 µM"
>>> measurement("Nc1cc2c(nc3c4ccccc4c(N)cc3[n+]2-c2cccc3ccccc23)c2ccccc12 (tested in a mixture with another compound)")
"15.1 µM"
>>> measurement("Cc1c2cnccc2c(C)c2c1c1cc(CO)ccc1n2C")
"1.53 µM"
>>> measurement("O=c1[nH]c(=S)[nH]c2c1C(c1ccc(Cl)cc1)c1c([nH]c(=S)[nH]c1=O)O2")
"> 100 µM"
>>> measurement("O=C1CC(c2ccccc2Cl)Oc2ccccc21 (centres undefined)")
"> 100 µM"
>>> measurement("COc1cccc2c(Nc3ccc(S(=O)(=O)Nc4ncccn4)cc3)c3ccc([N+](=O)[O-])cc3nc12")
"> 100 µM"
>>> measurement("CCN(CC)c1ccc2cc(-c3nc(-c4ccccc4)n[nH]3)c(=O)oc2c1")
"40.4 µM"

Okay, now this compound:
Consider OC1CC2CCCN(CCc3c1[nH]c1ccccc31)C2 (centres undefined) . Its measured TGI is > 100 µM

* * *

Field: TGI. Provide a value for each of the compounds that follow.
system: MALME-3M melanoma; assay: NCI tumour cell line growth inhibition, 48 h

Solved entries (count: 2):
>>> measurement("CCC(=C(C#N)C#N)c1cc(OC)c(OC)c(OC)c1")
"> 100 µM"
>>> measurement("Brc1ccc(N=NN2CCCC2)cc1")
"> 100 µM"

Give TGI for each listed item.
1. CCCCCCC[C@@H](O)CC(=O)NC(CC(C)C)C(=O)NC(CCC(=O)O)C(=O)NC1C(=O)NC(C(C)C)C(=O)NC(CC(C)C)C(=O)NC(CO)C(=O)NC(CC(C)C)C(=O)NC(CO)C(=O)NC(C(C)CC)C(=O)OC1C (some centres undefined)
2. COc1ccc(/C=C/C(=O)c2sc(NC(=S)NC(=O)c3ccccc3F)nc2C)cc1OC

["17.6 µM", "> 100 µM"]

* * *

test system: SF-268 CNS; assay: NCI tumour cell line growth inhibition, 48 h
metric-name: TGI

Solved entries (count: 7):
>>> measurement("CCN(CC)c1ccc2cc(-c3nc(-c4ccccc4)n[nH]3)c(=O)oc2c1")
"> 100 µM"
>>> measurement("COC(=O)c1cc2c3c(c1)Oc1cc(C(=O)OC)cc4c1C3c1c(cc(C(=O)OC)cc1O4)O2")
"30 µM"
>>> measurement("COC1CC(OC2C(C)OC(OC3C(C)OC(OC4C(C)OC(O[C@H]5CC[C@@]6(C)C(=CC[C@]7(O)[C@@H]6C[C@@H](OC(=O)/C=C/c6ccccc6)[C@@]6(C)[C@]7(O)CC[C@@]6(O)C(C)=O)C5)CC4OC)CC3OC)CC2OC)OC(C)C1O (stereo partly drawn)")
"> 12.5 µM"
>>> measurement("CCC(C(C)N1CC(=O)NC(=O)C1)N1CC(=O)NC(=O)C1 (stereo not drawn)")
"> 100 µM"
>>> measurement("O=C(O)C1CCCN1C(=O)c1cc(Cl)ccn1 (stereo not drawn)")
"> 100 µM"
>>> measurement("CC(=O)NC1C(OCc2ccccc2)OC(CO)C(O)C1OCC(=O)N1CCCC1C(=O)N[C@@H](CCC(=O)NCCNCCNc1c2ccccc2nc2cccc([N+](=O)[O-])c12)C(N)=O (stereo partly drawn)")
"25.1 µM"
>>> measurement("COc1ccc(/C=C/C(=O)c2cccc(B(O)O)c2)cc1O")
"19.9 µM"

Okay, now this compound:
Consider Cc1cccc(C)c1NC(=O)CCC(=O)CC(=O)C(C)C . Its measured TGI is > 100 µM

* * *

system: OVCAR-8 ovarian; test: NCI tumour cell line growth inhibition, 48 h
Field: log10(TGI). Provide a value for each of the compounds that follow.
Scale: decimal log of TGI, TGI in µM.

>>> measurement("C[N+](C)=C/C=C(\\Cl)c1ccc2ccccc2c1")
1.50
>>> measurement("CN(C)c1ccc(/C=C/c2ccc3ccccc3[n+]2C)cc1")
0.63
>>> measurement("O=C1CC(c2ccccc2Cl)Oc2ccccc21 (stereo unspecified)")
1.94
>>> measurement("O[N+]1=CC=CCC1=S.On1ccccc1=S.[Zn]")
0.26
>>> measurement("Nc1cc2c(nc3c4ccccc4c(N)cc3[n+]2-c2cccc3ccccc23)c2ccccc12 (tested in a mixture with another compound)")
1.11

Give log10(TGI) for each listed item.
1. Clc1ccc(/C=C2\CCCC3C2=Nc2ccccc2NC3c2ccc(Cl)cc2)cc1 (stereo unspecified)
2. CC(=O)OC[C@]1(C)C=C2C(=O)[C@](C)(O)C3(CC3)C(C)=C2[C@H]1OC(=O)N(C)CCN(C)C(=O)OC(C)(C)C
3. O=C(OCCN1CCCCCC1)C(c1ccsc1)C1CCCCC1 (stereo unspecified)
4. c1ccc([P+](CCN2Cc3ccccc3C2)(c2ccccc2)c2ccccc2)cc1
5. COC(=O)c1cc2c3c(c1)Oc1cc(C(=O)OC)cc4c1C3c1c(cc(C(=O)OC)cc1O4)O2
6. CC(C)[Si]1(C(C)C)OCC2OC(N3C(=O)NC(=O)C[C@@H]3C(O)c3ccccc3)CC2O[Si](C(C)C)(C(C)C)O1 (stereo partly specified)

0.92
1.51
1.54
0.90
1.23
1.24

The values you see were collected from PubChem BioAssay (NCI).
